target entity: Recombinant human GCPII (Homo sapiens, UniProt Q04609)
Construct: made in house
Sequence (Q04609 whole entry): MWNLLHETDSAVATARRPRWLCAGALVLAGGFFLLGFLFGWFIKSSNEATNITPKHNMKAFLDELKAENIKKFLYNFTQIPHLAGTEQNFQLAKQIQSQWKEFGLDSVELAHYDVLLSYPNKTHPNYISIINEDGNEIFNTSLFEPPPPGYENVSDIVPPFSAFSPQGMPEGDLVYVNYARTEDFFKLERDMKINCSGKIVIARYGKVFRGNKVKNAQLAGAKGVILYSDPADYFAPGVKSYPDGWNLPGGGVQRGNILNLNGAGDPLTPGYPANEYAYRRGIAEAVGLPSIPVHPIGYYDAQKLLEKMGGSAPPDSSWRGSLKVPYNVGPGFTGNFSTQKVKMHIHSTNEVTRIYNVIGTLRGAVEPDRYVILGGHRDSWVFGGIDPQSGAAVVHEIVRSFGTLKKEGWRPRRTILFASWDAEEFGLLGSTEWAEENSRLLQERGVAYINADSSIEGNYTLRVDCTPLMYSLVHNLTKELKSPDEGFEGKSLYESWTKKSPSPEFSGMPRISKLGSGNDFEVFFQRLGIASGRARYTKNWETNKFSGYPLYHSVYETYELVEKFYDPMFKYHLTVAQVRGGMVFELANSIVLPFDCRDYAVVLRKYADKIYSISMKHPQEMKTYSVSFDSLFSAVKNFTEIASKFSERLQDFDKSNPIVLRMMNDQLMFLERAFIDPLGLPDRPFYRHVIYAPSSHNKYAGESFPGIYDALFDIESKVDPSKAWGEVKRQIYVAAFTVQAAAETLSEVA
test: In vitro GCPII inhibition assay, fluorescence-based, RP-HPLC readout (screening at 20 μM and IC50)
Type: biochemical
assay setup: compound at 20 μM; 100 nM fluorescein-labeled Glu-Glu dipeptide substrate; read-out: Inhibition [%] of GCPII activity
test readout: inhibition at 20 µM (%)
A number alone suffices; assume %.

Check out these entries, answers already filled in.
{"test smiles": "O=C(NCCCCCCNC(=O)[C@H]1CCCC[C@H]1C(=O)O)[C@H]1CCCC[C@H]1C(=O)O", "unit spec": "%", "inhibition at 20 µM": 0}
{"test smiles": "O=C(O)c1ccc(C(=O)Nc2cc(Cl)ccc2Cl)c(C(=O)O)c1", "unit spec": "%", "inhibition at 20 µM": 4}
{"test smiles": "CCCCc1ccc(NC(=O)c2ccc(C(=O)O)cc2C(=O)O)cc1", "unit spec": "%", "inhibition at 20 µM": 10}

As a next step, examine the compound that follows.
Consider the compound `COc1ccc(N(CCC(=O)O)CCC(=O)O)cc1OC` and give its measured inhibition at 20 µM. 2

* * *

target entity: Recombinant human GCPII (Homo sapiens)
Construct: made in house
test: In vitro GCPII inhibition assay, fluorescence-based, RP-HPLC readout (screening at 20 μM and IC50)
Format: biochemical
assay setup: compound at 20 μM; 100 nM fluorescein-labeled Glu-Glu dipeptide substrate; read-out: Inhibition [%] of GCPII activity
The reader will find reported inhibition at 20 µM values listed item by item below.
Expressed in %, but write only the number.

{"test smiles": "COc1cc(C(=O)O)ccc1O[S@TB17](=O)(=O)c1ccc(F)cc1", "inhibition at 20 µM / %": 0}
{"test smiles": "O=C(O)c1ccc(NC(=O)c2ccccc2C(=O)O)cc1O", "inhibition at 20 µM / %": 0}
{"test smiles": "Cc1cc(-c2ccc(NC(=O)CCC(=O)O)c(C)c2)ccc1NC(=O)CCC(=O)O", "inhibition at 20 µM / %": 0}
{"test smiles": "O=C(O)CSc1nnnn1-c1ccc(C(=O)O)cc1", "inhibition at 20 µM / %": 3}

May I ask what inhibition at 20 µM has been recorded for `COc1ccc(OC)c(NC(=O)c2ccc(C(=O)O)cc2C(=O)O)c1` ? 0

* * *

// inhibition at 20 µM lookup, one value per entry
target entity: Recombinant human GCPII (Homo sapiens)
Construct: made in house
test: In vitro GCPII inhibition assay, fluorescence-based, RP-HPLC readout (screening at 20 μM and IC50)
Assay type: biochemical
assay setup: compound at 20 μM; 100 nM fluorescein-labeled Glu-Glu dipeptide substrate; read-out: Inhibition [%] of GCPII activity
Protocol: The inhibitory potency of the selected compounds against GCPII was determined using a fluorescence-based assay developed in-house. Recombinant human GCPII purified as described previously[40],[41] […] The data were fitted using the GraphPad Prism software, and IC50 values were calculated from the inhibition curves of two independent experiments using a nonlinear analysis protocol.
# unit: % | format: bare number

{"test smiles": "O=C(O)CN[S@TB17](=O)(=O)c1cccc(C(=O)O)c1", "target entity": "Recombinant human GCPII (Homo sapiens)", "unit spec": "%", "inhibition at 20 µM": 1}
{"test smiles": "O=C(O)c1ccc(C(=O)NCCc2ccccc2)c(C(=O)O)c1", "target entity": "Recombinant human GCPII (Homo sapiens)", "unit spec": "%", "inhibition at 20 µM": 3}
{"test smiles": "O=C(O)CCNC(=O)C(F)(F)C(F)(F)C(=O)NCCC(=O)O", "target entity": "Recombinant human GCPII (Homo sapiens)", "unit spec": "%", "inhibition at 20 µM": 0}
{"test smiles": "CCOc1ccc(NC(=O)c2cc(C(=O)O)ccc2C(=O)O)cc1", "target entity": "Recombinant human GCPII (Homo sapiens)", "unit spec": "%", "inhibition at 20 µM": 0}

Moving on to another molecule below.
Given the molecule `O=C(O)CCC(=O)Nc1cc(C(=O)O)ccc1Br` , what is its reported inhibition at 20 µM? 0
